Cited source: patent US20020137929A1

- System: CHEAL (Lambsquarters, Common)
- Run Description: Postemergence herbicidal evaluation
- Format: in vivo, Chenopodium album
- Protocol Conditions: postemergence, rate 0.0156 kg/ha
Catalogue of CHEAL herbicidal rating values
// print number alone

CCOC(=O)CN1C(=O)CN(C)C1=Nc1cc(-n2c(=O)cc(C(F)(F)F)n(C)c2=O)c(F)cc1Cl [Compound 25]    2.0
CCOC(=O)CN1C(=O)C(CC(=O)NO)S/C1=N/c1cc(-n2c(=O)cc(C(F)(F)F)n(C)c2=O)c(F)cc1Cl (centres unmarked) [Compound 98]    0.0
C=CCN1C(=O)C(CC(=O)NS(C)(=O)=O)SC1=Nc1cc(-n2c(=O)cc(C(F)(F)F)n(C)c2=O)c(F)cc1Cl (centres unmarked) [Compound 96]    2.0
CCOC(=O)CN1C(=O)C(CC(=O)NOC)SC1=Nc1cc(-n2c(=O)cc(C(F)(F)F)n(C)c2=O)c(F)cc1Cl (centres unmarked) [Compound 83]    5.0

Dear colleague, please send me the reported CHEAL herbicidal rating for C=CCN1C(=O)C(CC(=O)OCCF)SC1=Nc1cc(-n2c(=O)cc(C(F)(F)F)n(C)c2=O)c(F)cc1Cl (centres unmarked) [Compound 86] when you can.
9.0

====

# Herbicidal rating ECHORC listing for each entry below
- Tested on: ECHORC (Watergrass (Calif.))
- Run Description: Postemergence weed control under flooded paddy conditions
- Type: in vivo, Echinochloa oryzoides
- Protocol Conditions: rate 0.0625 kg/ha, postemergence weeds, 3-4 weeks after treatment

CCOC(=O)CN1C(=O)C2(CC2)SC1=Nc1cc(-n2c(=O)cc(C(F)(F)F)n(C)c2=O)c(F)cc1Cl [Compound 15]    9.0

Kindly indicate its recorded Herbicidal rating ECHORC. Item: CN1C(=O)CS/C1=N/c1cc(-n2c(=O)cc(C(F)(F)F)n(C)c2=O)c(F)cc1Cl [Compound 7]
8.5

For the molecule CCOC(=O)CN1C(=O)C(CC(N)=O)S/C1=N/c1cc(-n2c(=O)cc(C(F)(F)F)n(C)c2=O)c(F)cc1Cl (stereo not shown) [Compound 56] , give its reported Herbicidal rating ECHORC.
0.0

Look up and report measured Herbicidal rating ECHORC for this entry: CCOC(=O)CN1C(=O)C(Cc2ccccc2)SC1=Nc1cc(-n2c(=O)cc(C(F)(F)F)n(C)c2=O)c(F)cc1Cl (stereo not shown) [Compound 24]
9.0

====

- System: ECHCG (Barnyardgrass)
- Run Description: Postemergence herbicidal evaluation
- Format: in vivo, Echinochloa crus-galli
- Protocol Conditions: postemergence, rate 0.0158 kg/ha
Measurement Type: ECHCG herbicidal rating
Form rule: numeric answer, no unit written next to it.

See these solved cases before continuing.
CCOC(=O)CN1C(=O)C(Cc2ccccc2)SC1=Nc1cc(-n2c(=O)cc(C(F)(F)F)n(C)c2=O)c(F)cc1Cl (stereo not shown)    0.0
C#CCOC(=O)CC1SC(=Nc2cc(-n3c(=O)cc(C(F)(F)F)n(C)c3=O)c(F)cc2Cl)N(C)C1=O (stereo not shown)    3.0
CCOC(=O)CN1C(=O)C(CC(=O)Nc2ccccc2)SC1=Nc1cc(-n2c(=O)cc(C(F)(F)F)n(C)c2=O)c(F)cc1Cl (stereo not shown)    2.0

Next compound, please.
Specify ECHCG herbicidal rating for C#CCOC(=O)CC1SC(=Nc2cc(-n3c(=O)cc(C(F)(F)F)n(C)c3=O)c(F)cc2Cl)N(CC=C)C1=O (stereo not shown) and stop.
3.0
